Let's go through some recorded IC50 values for Aldo-keto reductase family 1 member A1 (Bos taurus) together.
outcome measure: IC50 (µM)

>>> numeric_readout("C/C(=N\\Nc1nc(-c2cc3ccccc3oc2=O)cs1)c1cc2ccccc2oc1=O")
8.91
>>> numeric_readout("COc1ccc(/C(C)=N/Nc2nc(-c3cc4ccccc4oc3=O)cs2)c(O)c1")
5.47
>>> numeric_readout("COc1ccc(/C(C)=N/Nc2nc(-c3cc4ccccc4oc3=O)cs2)cc1F")
1.08
>>> numeric_readout("COc1ccc(/C(C)=N/Nc2nc(-c3cc4ccccc4oc3=O)cs2)cc1")
7.62
>>> numeric_readout("C/C(=N\\Nc1nc(-c2cc3ccccc3oc2=O)cs1)c1ccccc1")
2.94
>>> numeric_readout("C/C(=N\\Nc1nc(-c2cc3ccccc3oc2=O)cs1)c1ccc(Br)cc1")
1.71

---

target: Aldo-keto reductase family 1 member B1 [K65Q] (Bos taurus, UniProt P16116, K65Q); experiment: ALR2 in vitro Inhibition Assay
pIC50: −log10 of the molar value.
outcome measure: pIC50

>>> numeric_readout("C/C(=N\\Nc1nc(-c2cc3ccccc3oc2=O)cs1)c1ccc(Br)cc1")
6.96
>>> numeric_readout("CC1=C(CC(=O)O)c2cc(F)ccc2/C1=C\\c1ccc([S@@+](C)[O-])cc1")
6.53
>>> numeric_readout("C/C(=N\\Nc1nc(-c2cc3ccccc3oc2=O)cs1)c1cccc(Br)c1")
5.20
>>> numeric_readout("O=c1oc2ccccc2cc1-c1nn(CN(c2ccccc2)c2ccccc2)c(=S)o1")
5.47
>>> numeric_readout("C/C(=N\\Nc1nc(-c2cc3ccccc3oc2=O)cs1)c1ccccc1Br")
6.80
>>> numeric_readout("COc1cc(/C(C)=N/Nc2nc(-c3cc4ccccc4oc3=O)cs2)ccc1O")
5.75
>>> numeric_readout("C/C(=N\\Nc1nc(-c2cc3ccccc3oc2=O)cs1)c1ccccc1 [Coumarin-thiazole series I, 6a]")
6.92
>>> numeric_readout("CCCCNCn1nc(-c2cc3ccccc3oc2=O)oc1=S")
4.24
>>> numeric_readout("O=c1oc2ccccc2cc1-c1nn(CNc2ccc(Cl)cc2)c(=S)o1")
5.47
>>> numeric_readout("O=c1oc2ccccc2cc1-c1nn(CNc2ccccc2Cl)c(=S)o1")
6.51
>>> numeric_readout("O=c1oc2ccccc2cc1-c1nn(CN2CCOCC2)c(=S)o1")
6.47
